- Test system: XIP peptide (Xip251-270) binding
- ASSAY NOTES: small-molecule binders of XIP peptide, primary screen, biochemical, small-molecule microarray, fluorescence 635/667 nm, 0.1 µg/mL protein (AID 1182)
- RECORDED CONDITIONS: fluorescent protein binding, 635 nm, higher = more signal, called active from +8 up or from −8 down
REPORTED METRIC: composite z-score
Respond using a number only.

Example cases with answers are listed next.
>>> result_number("COc1ccc([Si](C)(C)[C@H]2[C@H](CCO)O[C@@]3(C(=O)N(Cc4ccc(N5CCOC5=O)cc4)c4ccccc43)[C@@H]2C)cc1")
0.782
>>> result_number("COCCOC(=O)N1C(=O)[C@@]2(c3cc(C#CCCO)ccc31)[C@H](C(=O)N1CCc3cc(OC)c(OC)cc3C1)[C@H]1C(=O)O[C@H](c3ccccc3)[C@H](c3ccccc3)N1[C@@H]2c1ccccc1OCCO")
0.21
>>> result_number("Cc1ccc(S[C@]2(C(=O)NCCCN(C)C)CC(=O)N(Cc3ccccc3Cl)[C@@H]2c2ccc(CO)cc2I)cc1")
0.0919

Consider the record given below.
Quick one: composite z-score of CN1C(=O)C2C=CC(C(O)c3ccc(-c4ccccc4)s3)N(Nc3ccccc3)C2C1=O (centres undefined) ?
0.844

* * *

- Test system: Inhibin beta A chain (activin A)
- ASSAY NOTES: INHBA (activin A) binders on microarrays, primary screen, biochemical, small-molecule microarray, 635 nm fluorescence scan (AID 1107);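 also: mouse activin A protein probed at 4.33 µg/mL on printed slides; score merges bound-protein fluorescence near 667 nm with spot signal-to-noise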
- RECORDED CONDITIONS: small-molecule microarray binding, higher = more signal
Param threshold (-0.05) applies to composite z-score; output T when value >= threshold, F when value < threshold.

These recorded examples may help you get a feel for the data.
>>> discrete_label("[N-]=[N+]=NCc1ccccc1C[C@]1(C(=O)O)COC(c2ccc(OCCCO)cc2)=N1")
"T"
>>> discrete_label("COCCOC(=O)N1C(=O)[C@@]2(c3cc(C#CCCO)ccc31)[C@H](C(=O)N1CCN(c3ncccn3)CC1)[C@H]1C(=O)O[C@H](c3ccccc3)[C@H](c3ccccc3)N1[C@@H]2c1ccc(O)cc1")
"F"
>>> discrete_label("CO[C@H]1O[C@H](CO)[C@@H](OC(=O)Nc2ccc(C(F)(F)F)cc2)[C@H](OC(=O)Nc2ccccc2-c2ccccc2)[C@H]1OC(=O)Nc1ccccc1-c1ccccc1")
"T"

Quick check, composite z-score >= -0.05? CCCCCCc1nc(-c2ccc(OC)nc2)cc2c1[Si](C(C)C)(C(C)C)OC2
T

Quick check, composite z-score >= -0.05? CN(C)CCCC[C@@H]1NC(=O)[C@@H]2C[C@H](C(=O)NCCCCCCNC(=O)CS)[C@H](c3cccc(OCCO)c3)N2C1=O
F

* * *

- Test system: Human papillomavirus type 1a E7 protein (residues 1-88)
- ASSAY NOTES: HPV1a E7 small-molecule binders, primary screen, biochemical, small-molecule microarray, residues 1-88, 635 nm (AID 1129)
- RECORDED CONDITIONS: small-molecule microarray binding, fluorescence 635 nm; higher = more signal
REPORTED METRIC: composite z-score
Respond using a number only.

Example cases with answers are listed next.
>>> result_number("CCN(CC)c1ccc(N2CC=CC34O[C@@H]5C=CCOC(=O)[C@@H]5[C@H]3C(=O)N(CCO)[C@@H]4C2=O)cc1 (stereo partly specified)")
-0.508
>>> result_number("C=C(COC)C(=O)CC[C@@H](OC(=O)c1cccnc1)c1cccc(OCCO)c1")
0.23
>>> result_number("COCCOC(=O)N1C(=O)[C@@]2(c3cc(C#CC4=CCCCC4)ccc31)[C@H](c1ccccc1OCCO)N1[C@H](c3ccccc3)[C@H](c3ccccc3)OC(=O)[C@H]1[C@@H]2C(N)=O")
1.17
>>> result_number("CC(C)C[C@@H]1NC(=O)[C@H]2C[C@@H](C(=O)NCCCCCNC(=O)CS)[C@@H](c3ccc(O)cc3)N2C1=O")
1.24
>>> result_number("CN1C(=O)[C@]2(CCS(=O)(=O)c3ccccc3)N=C(c3ccc(OCCCO)cc3)O[C@@H]2c2ccccc21")
1.27
>>> result_number("COc1ccc([Si](C)(C)[C@H]2[C@H](CCO)O[C@@]3(C(=O)N(Cc4ccccc4)c4ccc(N(C=O)c5ccccc5)cc43)[C@@H]2C)cc1")
0.644
>>> result_number("C=CC(CO)NC(=O)OCC1c2ccccc2-c2ccccc21 (stereo unspecified)")
0.421
>>> result_number("COCCOC(=O)N1C(=O)[C@@]2(c3cc(C#CC4(O)CCCCCC4)ccc31)[C@H](c1ccccc1OCCO)N1[C@H](c3ccccc3)[C@H](c3ccccc3)OC(=O)[C@H]1[C@@H]2C(=O)N1CCCCCCC1")
1.23

Quick one: composite z-score of Cc1ccc(F)cc1S(=O)(=O)N[C@@H]1CCN(Cc2ccc3[nH]ccc3c2)C1 ?
0.479

Quick one: composite z-score of CCCCC(O)C1C=CC2C(=O)NC(=O)C2N1Nc1ccccn1 (stereo unspecified) ?
0.0748

Quick one: composite z-score of CN(C)CCCC[C@@H]1NC(=O)[C@@H]2C[C@H](C(=O)NCCCCCCNC(=O)CS)[C@H](c3cccc(OCCO)c3)N2C1=O ?
0.0742

Quick one: composite z-score of COCCOC(=O)N1C(=O)[C@@]2(c3cc(C#CCCO)ccc31)[C@H](C(=O)N1CCN(c3ncccn3)CC1)[C@H]1C(=O)O[C@H](c3ccccc3)[C@H](c3ccccc3)N1[C@@H]2c1ccc(O)cc1 ?
1.22

Quick one: composite z-score of COc1cc2c(cc1O)C(C1CC1)N(Cc1ccc([N+](=O)[O-])o1)CC2 (stereo unspecified) ?
1.12
